System: Escherichia coli CMC 84-11
test-name: in vitro antibacterial MIC, agar plate dilution
Format: cell-based
measurement-parameters: Escherichia coli, CMC8411, 18 h, 35° C., read-out: MIC
Method: The in vitro antimicrobial spectrum of the compounds of ths invention were determined by the agar plate dilution method with Mueller-Hinton agar and an inoculum of each test organism of approximately 10^4 colony forming units delivered by the Steers replicating device. The minimal inhibitory concentration (MIC) in mcg/ml is defined as the lowest concentration of test compound that inhibited visible growth after 18 hours incubation at 35° C. […]
Below, each entry is listed with its recorded MIC.
Please respond with the number in µg/mL and leave the unit unwritten.

Record request: MIC value, item CCn1cc(C(=O)O)c(=O)c2cc(F)c(N3CCNC(c4cc(C)cs4)C3)cc21 (stereo not shown) [Example 40] 0.25

Look at this compound and give its reported MIC. CCn1cc(C(=O)O)c(=O)c2cc(F)c(N3CCNC(c4cccnc4)C3)cc21 (stereo not shown) [Example 122] 0.25

Bench note: what MIC did CCn1cc(C(=O)O)c(=O)c2cc(F)c(N3CCNC(CF)C3)c(F)c21 (single isomer, unassigned; (-)) [Example 64] show? 0.03

Request the reported MIC associated with O=C(O)c1cn(-c2ccc(F)cc2)c2cc(N3CCNC(COc4ccccc4)C3)c(F)cc2c1=O (stereo not shown) [Example 84] 1

Quick one: MIC of O=C(O)c1cn(-c2ccc(F)cc2)c2cc(N3CCNC(c4ccsc4)C3)c(F)cc2c1=O (stereo not shown) [Example 100] ? 0.12

Consider the compound CCn1cc(C(=O)O)c(=O)c2cc(F)c(N3CCNC(c4ccncc4)C3)cc21 (stereo not shown) [Example 123] and give its measured MIC. 2

Item CCn1cc(C(=O)O)c(=O)c2cc(F)c(N3CCN(C)C(c4ccc(C)s4)C3)cc21 (stereo not shown) [Example 38] has what recorded MIC? 4

Fill blank: measured MIC of the compound CCn1cc(C(=O)O)c(=O)c2cc(F)c(N3CCNC(COc4ccccc4)C3)cc21 (stereo not shown) [Example 9] is ____. 0.5

====

Catalogue of MIC readings, one per entry.
System: Staphylococcus Spp saprophiticus VGH 84-50
test-name: in vitro antibacterial MIC, agar plate dilution
Format: cell-based
measurement-parameters: 18 hours, 35° C., read-out: MIC
Write down the numeric answer in µg/mL and omit the unit.

• CCn1cc(C(=O)O)c(=O)c2cc(F)c(N3CCNC(c4ccco4)C3)cc21 (stereo not drawn) [Example 28] = 1

Let us move to another entry and its MIC.
Given the entry O=C(O)c1cn(C2CC2)c2cc(N3CCNC(c4ccco4)C3)c(F)cc2c1=O (stereo not drawn) [Example 62] , report its measured MIC. 0.12

====

Recorded MIC, one value per entry.
Tested on: Staphylococcus aureus Smith
test-name: in vitro antibacterial MIC, agar plate dilution
Type: cell-based
measurement-parameters: 18 hours, 35° C.
Please state the figure in µg/mL; there is no need to write the unit.

Examples from the recorded data:
• CCn1cc(C(=O)O)c(=O)c2cc(F)c(N3CCNC(CF)C3)c(F)c21 (single isomer, unassigned; (+)) [Example 65] = 0.25
• CCn1cc(C(=O)O)c(=O)c2cc(F)c(N3CCN(C)C(CF)C3)c(F)c21 (single isomer, unassigned; (+)) [Example 115] = 0.5

Form: Entry = CCn1cc(C(=O)O)c(=O)c2cc(F)c(N3CCN(C)C(CF)C3)c(F)c21 (single isomer, unassigned) [Example 114] | System = Staphylococcus aureus Smith | MIC = ____ 0.12

The measurements presented in this section are drawn from patent US5210193A.
